- System: M. immunogenum group
- assay.method.text: MIC (CLSI broth dilution), RGM isolates
- Assay type: cell-based
- reported.conditions: isolate 38, M. immunogenum group, M. immunogenum
measured.endpoint: MIC

Per the record, C[C@@H](O)[C@H]1C(=O)N2C(C(=O)O)=C(SCCN=CN)C[C@H]12 has MIC of 32 µg/mL

Per the record, C[C@H]1c2cccc(O)c2C(=O)C2=C(O)[C@]3(O)C(=O)C(C(N)=O)=C(O)[C@@H](N(C)C)[C@@H]3[C@@H](O)[C@@H]21 has MIC of >8 µg/mL

Per the record, CN(C)c1cc(NC(=O)CNC(C)(C)C)c(O)c2c1C[C@H]1C[C@H]3[C@H](N(C)C)C(O)=C(C(N)=O)C(=O)[C@@]3(O)C(O)=C1C2=O has MIC of 0.5 µg/mL

Per the record, NCC[C@H](O)C(=O)N[C@@H]1C[C@H](N)[C@@H](O[C@H]2O[C@H](CN)[C@@H](O)[C@H](O)[C@H]2O)[C@H](O)[C@H]1O[C@H]1O[C@H](CO)[C@@H](O)[C@H](N)[C@H]1O has MIC of 8 µg/mL

Source listed as patent US20250332178A1.
